- MEASUREMENT_TARGET: UniProtKB P08912
- ASSAY_PROTOCOL: Positive allosteric modulator activity at human muscarinic acetylcholine receptor subtype 5 expressed in CHO cells by calcium mobilization assay relative to acetylcholine
- Format: functional, cell-based
OBSERVABLE: %max (%)

# STRUCTURE_SMILES_STRING, %max, %
rows = [
    ("CCN(Cc1ccccc1)C(=O)C1CCN(S(=O)(=O)c2ccc(C)s2)CC1", 64),
    ("CC(C)N(Cc1ccccc1C(F)(F)F)C(=O)C1CCN(S(=O)(=O)c2ccc3[nH]ncc3c2)CC1", 54),
    ("CCN(Cc1cccc(Cl)c1)C(=O)C1CCN(S(=O)(=O)c2ccc3cn[nH]c3c2)CC1", 77),
    ("CCN(Cc1cccc(F)c1)C(=O)C1CCN(S(=O)(=O)c2ccc3cn[nH]c3c2)CC1", 89),
    ("CCN(C(=O)C1CCN(S(=O)(=O)c2ccc3cn[nH]c3c2)CC1)[C@H](C)c1ccccc1", 87),
    ("CCN(Cc1ccccc1Cl)C(=O)C1CCN(S(=O)(=O)c2ccc3cn[nH]c3c2)CC1", 93),
    ("CCN(C(=O)C1CCN(S(=O)(=O)c2ccc(OC)cc2)CC1)[C@H](C)c1ccccc1", 90),
    ("CCN(Cc1ccccc1)C(=O)C1CCN(S(=O)(=O)c2ccc(OC)c(OC)c2)CC1", 57),
    ("CCN(Cc1ccccc1)C(=O)C1CCN(S(=O)(=O)c2ccc(OC)cc2)CC1", 84),
    ("CCN(Cc1ccccc1C(F)(F)F)C(=O)C1CCN(S(=O)(=O)c2ccc3cn[nH]c3c2)CC1", 92),
    ("CCN(Cc1ccccc1F)C(=O)C1CCN(S(=O)(=O)c2ccc3cn[nH]c3c2)CC1", 84),
    ("CCN(Cc1cccc(OC)c1)C(=O)C1CCN(S(=O)(=O)c2ccc3cn[nH]c3c2)CC1", 85),
    ("CCN(Cc1ccc(F)cc1)C(=O)C1CCN(S(=O)(=O)c2ccc3cn[nH]c3c2)CC1", 55),
    ("CCN(Cc1ccccc1Cl)C(=O)C1CCN(S(=O)(=O)c2ccc3[nH]ncc3c2)CC1", 78),
    ("O=C(C1CCN(S(=O)(=O)c2ccc3[nH]ncc3c2)CC1)N(Cc1ccccc1C(F)(F)F)CC1CCC1", 103),
    ("CCN(Cc1ccccc1)C(=O)C1CCN(S(=O)(=O)c2cccc(OC)c2)CC1", 77),
    ("CCN(Cc1ccccc1)C(=O)C1CCN(S(=O)(=O)c2ccc3occc3c2)CC1", 80),
    ("CCN(C(=O)C1CCN(S(=O)(=O)c2ccc3[nH]ncc3c2)CC1)[C@H](C)c1ccccc1", 86),
    ("CCN(Cc1ccccc1C(F)(F)F)C(=O)C1CCN(S(=O)(=O)c2ccc3[nH]ncc3c2)CC1", 96),
]

====

- MEASUREMENT_TARGET: Muscarinic acetylcholine receptor M1 (Rattus norvegicus, UniProt P08482)
- Sequence (P08482 whole entry): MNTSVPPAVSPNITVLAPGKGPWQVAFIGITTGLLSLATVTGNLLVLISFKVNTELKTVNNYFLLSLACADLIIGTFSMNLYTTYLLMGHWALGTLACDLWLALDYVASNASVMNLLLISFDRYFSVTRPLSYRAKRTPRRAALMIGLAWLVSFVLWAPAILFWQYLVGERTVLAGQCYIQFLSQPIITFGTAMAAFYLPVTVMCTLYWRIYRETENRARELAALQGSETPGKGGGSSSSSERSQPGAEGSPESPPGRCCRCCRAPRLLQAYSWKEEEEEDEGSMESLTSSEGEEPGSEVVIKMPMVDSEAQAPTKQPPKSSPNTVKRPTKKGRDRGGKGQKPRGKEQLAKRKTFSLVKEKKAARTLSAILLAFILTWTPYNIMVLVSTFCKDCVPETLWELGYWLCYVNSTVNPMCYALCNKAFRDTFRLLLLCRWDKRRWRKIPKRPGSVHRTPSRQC
- ASSAY_PROTOCOL: Activity at rat muscarinic acetylcholine receptor subtype 1 expressed in CHO cells by calcium mobilization assay
OBSERVABLE: EC50 (nM)
Kindly provide the numeric value in nM only, without the unit symbol.

**Query** Checklist item: EC50 tested on Muscarinic acetylcholine receptor M1 (Rattus norvegicus, UniProt P08482), entry `CCN(Cc1ccccc1C(F)(F)F)C(=O)C1CCN(S(=O)(=O)c2ccc3[nH]ncc3c2)CC1` , value?
**Result** 2000

====

- MEASUREMENT_TARGET: UniProtKB P20309
- Sequence (P20309 whole entry): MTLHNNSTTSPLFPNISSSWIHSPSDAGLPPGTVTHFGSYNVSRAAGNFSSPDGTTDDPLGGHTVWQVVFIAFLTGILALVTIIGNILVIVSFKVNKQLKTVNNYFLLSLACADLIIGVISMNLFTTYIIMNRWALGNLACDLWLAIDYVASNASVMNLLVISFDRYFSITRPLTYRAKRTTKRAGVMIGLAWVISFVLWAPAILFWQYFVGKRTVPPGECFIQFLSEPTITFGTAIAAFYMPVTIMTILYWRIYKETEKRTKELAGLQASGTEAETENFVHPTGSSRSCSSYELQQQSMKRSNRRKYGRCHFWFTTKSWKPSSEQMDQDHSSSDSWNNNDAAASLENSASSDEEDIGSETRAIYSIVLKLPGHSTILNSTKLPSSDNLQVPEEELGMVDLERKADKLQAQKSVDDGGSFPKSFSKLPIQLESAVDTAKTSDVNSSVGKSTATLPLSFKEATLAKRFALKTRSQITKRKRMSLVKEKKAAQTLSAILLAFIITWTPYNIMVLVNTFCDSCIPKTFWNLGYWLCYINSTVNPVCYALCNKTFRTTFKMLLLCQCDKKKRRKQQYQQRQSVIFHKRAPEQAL
- ASSAY_PROTOCOL: Activity at human muscarinic acetylcholine receptor subtype 3 expressed in CHO cells by calcium mobilization assay
OBSERVABLE: pEC50
FYI, pEC50 means -log10 of a concentration in mol per litre.

**Query** Checklist item: pEC50 tested on UniProtKB P20309, entry `CCN(Cc1ccccc1C(F)(F)F)C(=O)C1CCN(S(=O)(=O)c2ccc3[nH]ncc3c2)CC1` , value?
**Result** 5.68

====

- MEASUREMENT_TARGET: Muscarinic acetylcholine receptor M5 (Homo sapiens, UniProt P08912)
- Sequence (P08912 whole entry): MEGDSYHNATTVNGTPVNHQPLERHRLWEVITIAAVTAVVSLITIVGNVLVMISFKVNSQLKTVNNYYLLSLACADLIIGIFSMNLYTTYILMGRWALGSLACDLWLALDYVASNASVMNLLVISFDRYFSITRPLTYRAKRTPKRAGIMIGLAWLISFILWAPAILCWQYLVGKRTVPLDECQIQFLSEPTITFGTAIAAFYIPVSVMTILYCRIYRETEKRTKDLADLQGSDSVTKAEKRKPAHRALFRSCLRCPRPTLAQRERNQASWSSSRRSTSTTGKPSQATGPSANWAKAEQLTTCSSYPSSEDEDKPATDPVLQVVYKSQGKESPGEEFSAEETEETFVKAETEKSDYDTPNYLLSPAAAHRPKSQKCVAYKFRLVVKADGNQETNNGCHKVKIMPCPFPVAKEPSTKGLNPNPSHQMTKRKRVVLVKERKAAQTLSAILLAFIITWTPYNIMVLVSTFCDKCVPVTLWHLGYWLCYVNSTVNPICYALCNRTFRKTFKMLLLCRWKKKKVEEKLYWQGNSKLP
- ASSAY_PROTOCOL: Positive allosteric modulator activity at human muscarinic acetylcholine receptor subtype 5 expressed in CHO cells by calcium mobilization assay
- Type: functional, cell-based
- COND: read-out: EC50
pEC50: −log10 of the molar value.
OBSERVABLE: pEC50

1. CCN(Cc1ccccc1)C(=O)C1CCN(S(=O)(=O)c2ccc3[nH]ncc3c2)CC1
2. CCN(Cc1ccccc1C(F)(F)F)C(=O)C1CCN(S(=O)(=O)c2ccc3cn[nH]c3c2)CC1
**Query** Identify the entry with the larger pEC50. Options: 1 and 2 Pick one; state its label.
**Result** 2
(2: 6.32, 1: 5.80)

====

- MEASUREMENT_TARGET: Muscarinic acetylcholine receptor M5 (Homo sapiens) (UniProt P08912)
- ASSAY_PROTOCOL: Positive allosteric modulator activity at human muscarinic acetylcholine receptor subtype 5 expressed in CHO cells assessed as fold shift in acetylcholine-induced response at 10 uM by calcium mobilization assay
- Type: functional, cell-based
OBSERVABLE: fold change (FC)

Reference set (3 entries):
# STRUCTURE_SMILES_STRING, MEASUREMENT_TARGET, fold change (FC)
measured = [
    ("CCN(Cc1ccccc1C(F)(F)F)C(=O)C1CCN(S(=O)(=O)c2ccc3cn[nH]c3c2)CC1", "Muscarinic acetylcholine receptor M5 (Homo sapiens) (UniProt P08912)", 7),
    ("CCN(Cc1ccccc1)C(=O)C1CCN(S(=O)(=O)c2ccc3[nH]ncc3c2)CC1", "Muscarinic acetylcholine receptor M5 (Homo sapiens) (UniProt P08912)", 5.4),
    ("CCN(Cc1ccccc1C(F)(F)F)C(=O)C1CCN(S(=O)(=O)c2ccc3[nH]ncc3c2)CC1", "Muscarinic acetylcholine receptor M5 (Homo sapiens) (UniProt P08912)", 9),
]

1. CCN(C(=O)C1CCN(S(=O)(=O)c2ccc(OC)cc2)CC1)[C@H](C)c1ccccc1
2. CCN(C(=O)C1CCN(S(=O)(=O)c2ccc3[nH]ncc3c2)CC1)[C@H](C)c1ccccc1
3. CCN(Cc1ccccc1)C(=O)C1CCN(S(=O)(=O)c2ccc3c(c2)OCCO3)CC1
4. CCN(Cc1ccccc1)C(=O)C1CCN(S(=O)(=O)c2ccc3cn[nH]c3c2)CC1
**Query** List by increasing fold change (FC). Answer by writing out the labels in the requested order.
**Result** 3, 4, 1, 2
(3: 2.3, 4: 4.8, 1: 7, 2: 12)

====

- MEASUREMENT_TARGET: Muscarinic acetylcholine receptor M5 (Homo sapiens, UniProt P08912)
- ASSAY_PROTOCOL: Positive allosteric modulator activity at human muscarinic acetylcholine receptor subtype 5 expressed in CHO cells by calcium mobilization assay
- Format: functional, cell-based
- COND: read-out: EC50
OBSERVABLE: EC50 (nM)

Reference set (4 entries):
# STRUCTURE_SMILES_STRING, UNIT_SYMBOL, EC50
records = [
    ("CCN(C(=O)C1CCN(S(=O)(=O)c2ccc3c(c2)CCO3)CC1)[C@H](C)c1ccccc1", "nM", 1110),
    ("CCN(Cc1ccccc1Cl)C(=O)C1CCN(S(=O)(=O)c2ccc3[nH]ncc3c2)CC1", "nM", 350),
    ("CCN(Cc1ccccc1)C(=O)C1CCN(S(=O)(=O)c2ccc3c(c2)OCO3)CC1", "nM", 7400),
    ("C=CCN(Cc1ccccc1C(F)(F)F)C(=O)C1CCN(S(=O)(=O)c2ccc3[nH]ncc3c2)CC1", "nM", 1800),
]

A. CCN(Cc1ccccc1)C(=O)C1CCN(S(=O)(=O)c2ccc(OC)cc2)CC1
B. CCN(Cc1cccc(C)c1)C(=O)C1CCN(S(=O)(=O)c2ccc3cn[nH]c3c2)CC1
C. CCN(Cc1cccc(Cl)c1)C(=O)C1CCN(S(=O)(=O)c2ccc3cn[nH]c3c2)CC1
**Query** Order the records by EC50, with each subsequent value no larger than the one before. Answer by writing out the labels in the requested order.
**Result** A, C, B
(A: 3300 nM, C: 1600 nM, B: 870 nM)

1. CCN(Cc1ccccc1C)C(=O)C1CCN(S(=O)(=O)c2ccc3cn[nH]c3c2)CC1
2. O=C(C1CCN(S(=O)(=O)c2ccc3[nH]ncc3c2)CC1)N(Cc1ccccc1C(F)(F)F)CC1CC1
3. CCN(Cc1ccccc1)C(=O)C1CCN(S(=O)(=O)c2ccc3occc3c2)CC1
**Query** List by increasing EC50. Answer by writing out the labels in the requested order.
**Result** 2, 1, 3
(2: 120 nM, 1: 870 nM, 3: 2400 nM)

A. CCN(C(=O)C1CCN(S(=O)(=O)c2ccc(OC)cc2)CC1)[C@H](C)c1ccccc1
B. O=C(C1CCN(S(=O)(=O)c2ccc3[nH]ncc3c2)CC1)N(Cc1ccccc1C(F)(F)F)CC1CCC1
**Query** Identify the entry with the larger EC50. Options: A and B Pick one; state its label.
**Result** A
(A: 970 nM, B: 130 nM)

These measurements were taken from ChEMBL document CHEMBL3352313.
